# method_description: Biodistribution of 177Lu-labeled αMSH analogues in mice bearing B16F10 mouse melanoma
# Format: in vivo, C57BL/6J mice
# condition_info: mouse, liver, iv, total radioactivity; 24 h p.i., C57BL/6J mice, B16F10 melanoma; read-out: Biodistribution, Liver
measure_name: tissue uptake at 24 h
# do not omit the unit; it follows the number

# input // returns reported tissue uptake at 24 h for input CCCC[C@H](NC(=O)CN1CCC(NC(=O)CN2CCN(CC(=O)O)CCN(CC(=O)O)CCN(CC(=O)O)CC2)CC1)C(=O)N[C@H]1CC(=O)NCCCC[C@@H](C(N)=O)NC(=O)[C@H](Cc2c[nH]c3ccccc23)NC(=O)[C@H](CCCNC(=N)N)NC(=O)[C@@H](Cc2ccccc2)NC(=O)[C@H](Cc2c[nH]cn2)NC1=O [^177Lu-labeled CCZ01048, metal not drawn, reference compound]
# output 0.34 %ID/g

# input // returns reported tissue uptake at 24 h for input CCCC[C@H](NC(=O)CN1CCC(NC(=O)CN2CCN(CC(=O)O)CCN(CC(=O)O)CCN(CC(=O)O)CC2)CC1)C(=O)N[C@H]1CC(=O)NCCCC[C@@H](C(N)=O)N(C)C(=O)[C@H](Cc2c[nH]c3ccccc23)N(C)C(=O)[C@H](CCCNC(=N)N)N(C)C(=O)[C@@H](Cc2ccccc2)NC(=O)[C@H](Cc2c[nH]cn2)N(C)C1=O [^177Lu-labeled CCZ01099, metal not drawn]
# output 0.32 %ID/g

# input // returns reported tissue uptake at 24 h for input CCCC[C@H](NC(=O)CN1CCC(NC(=O)CN2CCN(CC(=O)O)CCN(CC(=O)O)CCN(CC(=O)O)CC2)CC1)C(=O)N[C@H]1CC(=O)NCCCC[C@@H](C(N)=O)N(C)C(=O)[C@H](Cc2c[nH]c3ccccc23)NC(=O)[C@H](CCCNC(=N)N)N(C)C(=O)[C@@H](Cc2ccccc2)NC(=O)[C@H](Cc2c[nH]cn2)NC1=O [^177Lu-labeled CCZ01106, metal not drawn]
# output 0.58 %ID/g

* * *

Answer each item with its documented tissue to tissue ratio at 24 h.
# method_description: Biodistribution of 177Lu-labeled αMSH analogues in mice bearing SK-MEL-1 human melanoma
# condition_info: male, NRG (NOD.Cg-Rag1tm1Mom Il2rgtm1Wjl/SzJ), mouse, tumour/kidney, total radioactivity, 24 h p.i., NRG mice, SK-MEL-1 melanoma
Provide a numeric answer; units are not to be included.

# input // returns reported tissue to tissue ratio at 24 h for input CCCC[C@H](NC(=O)CN1CCC(NC(=O)[C@H](CCCCNC(=O)CN2CCN(CC(=O)O)CCN(CC(=O)O)CCN(CC(=O)O)CC2)NC(=O)[C@H](CCC(=O)O)NC(=O)CCCc2ccc(I)cc2)CC1)C(=O)N[C@H]1CC(=O)NCCCC[C@@H](C(N)=O)N(C)C(=O)[C@H](Cc2c[nH]c3ccccc23)NC(=O)[C@H](CCCNC(=N)N)N(C)C(=O)[C@@H](Cc2ccccc2)NC(=O)[C@H](Cc2c[nH]cn2)NC1=O [^177Lu-labeled CCZ01118, metal not drawn]
# output 1.55

# input // returns reported tissue to tissue ratio at 24 h for input CCCC[C@H](NC(=O)CN1CCC(NC(=O)[C@H](CCCCNC(=O)CN2CCN(CC(=O)O)CCN(CC(=O)O)CCN(CC(=O)O)CC2)NC(=O)CNC(=O)CCCc2ccc(-c3ccc(C)cc3)cc2)CC1)C(=O)N[C@H]1CC(=O)NCCCC[C@@H](C(N)=O)N(C)C(=O)[C@H](Cc2c[nH]c3ccccc23)NC(=O)[C@H](CCCNC(=N)N)N(C)C(=O)[C@@H](Cc2ccccc2)NC(=O)[C@H](Cc2c[nH]cn2)NC1=O [^177Lu-labeled CCZ01158, metal not drawn]
# output 3.68

# input // returns reported tissue to tissue ratio at 24 h for input CCCC[C@H](NC(=O)CN1CCC(NC(=O)[C@H](CCCCNC(=O)CN2CCN(CC(=O)O)CCN(CC(=O)O)CCN(CC(=O)O)CC2)NC(=O)CNC(=O)CCCc2ccc(I)cc2)CC1)C(=O)N[C@H]1CC(=O)NCCCC[C@@H](C(N)=O)N(C)C(=O)[C@H](Cc2c[nH]c3ccccc23)NC(=O)[C@H](CCCNC(=N)N)N(C)C(=O)[C@@H](Cc2ccccc2)NC(=O)[C@H](Cc2c[nH]cn2)NC1=O [^177Lu-labeled CCZ01148, metal not drawn]
# output 3.19

* * *

# method_description: Biodistribution of 177Lu-labeled αMSH analogues in mice bearing B16F10 mouse melanoma
# Format: in vivo, C57BL/6J mice
# condition_info: mouse, tumour/kidney, iv, total radioactivity; 4 h p.i., C57BL/6J mice, B16F10 melanoma; read-out: Tumour/kidney
measure_name: tissue to tissue ratio at 4 h
Provide a numeric answer; units are not to be included.

# input // returns reported tissue to tissue ratio at 4 h for input CCCC[C@H](NC(=O)CN1CCC(NC(=O)[C@H](CCCCNC(=O)CN2CCN(CC(=O)O)CCN(CC(=O)O)CCN(CC(=O)O)CC2)NC(=O)[C@H](CCC(=O)O)NC(=O)CCCc2ccc(I)cc2)CC1)C(=O)N[C@H]1CC(=O)NCCCC[C@@H](C(N)=O)N(C)C(=O)[C@H](Cc2c[nH]c3ccccc23)NC(=O)[C@H](CCCNC(=N)N)N(C)C(=O)[C@@H](Cc2ccccc2)NC(=O)[C@H](Cc2c[nH]cn2)NC1=O [^177Lu-labeled CCZ01118, metal not drawn]
# output 2.47

# input // returns reported tissue to tissue ratio at 4 h for input CCCC[C@H](NC(=O)CN1CCC(NC(=O)CN2CCN(CC(=O)O)CCN(CC(=O)O)CCN(CC(=O)O)CC2)CC1)C(=O)N[C@H]1CC(=O)NCCCC[C@@H](C(N)=O)NC(=O)[C@H](Cc2c[nH]c3ccccc23)NC(=O)[C@H](CCCNC(=N)N)NC(=O)[C@@H](Cc2ccccc2)NC(=O)[C@H](Cc2c[nH]cn2)NC1=O [^177Lu-labeled CCZ01048, metal not drawn, reference compound]
# output 3.65

# input // returns reported tissue to tissue ratio at 4 h for input CCCC[C@H](NC(=O)CN1CCC(NC(=O)CN2CCN(CC(=O)O)CCN(CC(=O)O)CCN(CC(=O)O)CC2)CC1)C(=O)N[C@H]1CC(=O)NCCCC[C@@H](C(N)=O)N(C)C(=O)[C@H](Cc2c[nH]c3ccccc23)NC(=O)[C@H](CCCNC(=N)N)N(C)C(=O)[C@@H](Cc2ccccc2)NC(=O)[C@H](Cc2c[nH]cn2)NC1=O [^177Lu-labeled CCZ01106, metal not drawn]
# output 2.46

# input // returns reported tissue to tissue ratio at 4 h for input CCCC[C@H](NC(=O)CN1CCC(NC(=O)[C@H](CCCCNC(=O)CN2CCN(CC(=O)O)CCN(CC(=O)O)CCN(CC(=O)O)CC2)NC(=O)[C@H](CCC(=O)O)NC(=O)CCCc2ccc(I)cc2)CC1)C(=O)N[C@H]1CC(=O)NCCCC[C@@H](C(N)=O)NC(=O)[C@H](Cc2c[nH]c3ccccc23)NC(=O)[C@H](CCCNC(=N)N)NC(=O)[C@@H](Cc2ccccc2)NC(=O)[C@H](Cc2c[nH]cn2)NC1=O [^177Lu-labeled CCZ01082, metal not drawn]
# output 2.05

# input // returns reported tissue to tissue ratio at 4 h for input CCCC[C@H](NC(=O)CN1CCC(NC(=O)[C@H](CCCCNC(=O)CN2CCN(CC(=O)O)CCN(CC(=O)O)CCN(CC(=O)O)CC2)NC(=O)[C@H](CCC(=O)O)NC(=O)CCCc2ccc(I)cc2)CC1)C(=O)N[C@H]1CC(=O)NCCCC[C@@H](C(N)=O)N(C)C(=O)[C@H](Cc2c[nH]c3ccccc23)N(C)C(=O)[C@H](CCCNC(=N)N)N(C)C(=O)[C@@H](Cc2ccccc2)NC(=O)[C@H](Cc2c[nH]cn2)N(C)C1=O [^177Lu-labeled CCZ01088, metal not drawn]
# output 0.85

* * *

# method_description: Biodistribution of 177Lu-labeled αMSH analogues in mice bearing SK-MEL-1 human melanoma
# condition_info: male, NRG (NOD.Cg-Rag1tm1Mom Il2rgtm1Wjl/SzJ), mouse, stomach, total radioactivity
measure_name: tissue uptake at 4 h (%ID/g)
A number alone suffices; assume %ID/g.

# input // returns reported tissue uptake at 4 h for input CCCC[C@H](NC(=O)CN1CCC(NC(=O)[C@H](CCCCNC(=O)CN2CCN(CC(=O)O)CCN(CC(=O)O)CCN(CC(=O)O)CC2)NC(=O)[C@H](CCC(=O)O)NC(=O)CCCc2ccc(I)cc2)CC1)C(=O)N[C@H]1CC(=O)NCCCC[C@@H](C(N)=O)N(C)C(=O)[C@H](Cc2c[nH]c3ccccc23)NC(=O)[C@H](CCCNC(=N)N)N(C)C(=O)[C@@H](Cc2ccccc2)NC(=O)[C@H](Cc2c[nH]cn2)NC1=O [^177Lu-labeled CCZ01118, metal not drawn]
# output 0.44

# input // returns reported tissue uptake at 4 h for input CCCC[C@H](NC(=O)CN1CCC(NC(=O)[C@H](CCCCNC(=O)CN2CCN(CC(=O)O)CCN(CC(=O)O)CCN(CC(=O)O)CC2)NC(=O)CNC(=O)CCCc2ccc(I)cc2)CC1)C(=O)N[C@H]1CC(=O)NCCCC[C@@H](C(N)=O)N(C)C(=O)[C@H](Cc2c[nH]c3ccccc23)NC(=O)[C@H](CCCNC(=N)N)N(C)C(=O)[C@@H](Cc2ccccc2)NC(=O)[C@H](Cc2c[nH]cn2)NC1=O [^177Lu-labeled CCZ01148, metal not drawn]
# output 1.02

# input // returns reported tissue uptake at 4 h for input CCCC[C@H](NC(=O)CN1CCC(NC(=O)[C@H](CCCCNC(=O)CN2CCN(CC(=O)O)CCN(CC(=O)O)CCN(CC(=O)O)CC2)NC(=O)CNC(=O)CCCc2ccc(-c3ccc(C)cc3)cc2)CC1)C(=O)N[C@H]1CC(=O)NCCCC[C@@H](C(N)=O)N(C)C(=O)[C@H](Cc2c[nH]c3ccccc23)NC(=O)[C@H](CCCNC(=N)N)N(C)C(=O)[C@@H](Cc2ccccc2)NC(=O)[C@H](Cc2c[nH]cn2)NC1=O [^177Lu-labeled CCZ01158, metal not drawn]
# output 0.66
